Test: logP by HPLC on reversed-phase column (EEC Directive 79/831 Annex V.A8)
Conditions: HPLC on reversed-phase column (C 18), EEC Directive 79/831 Annex V.A8
Below, each entry is listed alongside its reported logP.

{"compound": "Cn1nc(C(F)F)c(C(=O)Nc2cccc(Br)c2)c1Cl", "logP": 3.04}
{"compound": "CCCOc1cccc(NC(=O)c2c(C(F)F)nn(C)c2Cl)c1", "logP": 3.25}
{"compound": "Cn1nc(C(F)F)c(C(=O)Nc2ccc3c(c2)OC(F)(F)C(F)(F)O3)c1Cl", "logP": 3.76}
{"compound": "Cn1nc(C(F)F)c(C(=O)Nc2ccccc2-c2ccc(Br)c(Cl)c2)c1F", "logP": 3.83}
{"compound": "C=C(C)COc1cccc(NC(=O)c2c(C(F)F)nn(C)c2F)c1", "logP": 3.15}
{"compound": "CC(C)Oc1ccc(-c2ccccc2NC(=O)c2c(C(F)F)nn(C)c2Cl)cc1", "logP": 4.36}
{"compound": "Cn1nc(C(F)F)c(C(=O)Nc2cccc(-c3ccc(Cl)cc3)c2)c1Cl", "logP": 4.04}
{"compound": "Cc1cc(C)cc(-c2ccccc2NC(=O)c2c(C(F)F)nn(C)c2Cl)c1", "logP": 4.51}
{"compound": "CCC(C)Oc1cc(NC(=O)c2c(C(F)F)nn(C)c2Cl)ccc1C (stereo not drawn)", "logP": 4.06}

---

Below, each entry is listed alongside its reported Efficacy.
System: Alternaria solani
Assay: Alternaria test (tomato)/preventive
Format: in vivo
Conditions: 500 ppm, preventive, evaluated 7 days after inoculation
quantity_name: Efficacy (%)

{"compound": "Cn1nc(C(F)F)c(C(=O)Nc2c(F)cccc2-c2ccc(Cl)c(Cl)c2)c1F [Example 115]", "assay_system": "Alternaria solani", "quantity_name": "Efficacy", "result_number": 95}
{"compound": "Cn1nc(C(F)F)c(C(=O)Nc2ccccc2C2CC2C2CC2)c1F (centres unmarked) [Example 46]", "assay_system": "Alternaria solani", "quantity_name": "Efficacy", "result_number": 100}
{"compound": "Cn1nc(C(F)F)c(C(=O)Nc2ccc(F)cc2-c2ccc(Cl)cc2)c1Cl [Example 83]", "assay_system": "Alternaria solani", "quantity_name": "Efficacy", "result_number": 94}
{"compound": "COC(C)(C)CCc1ccccc1NC(=O)c1c(C(F)F)nn(C)c1F [Example 23]", "assay_system": "Alternaria solani", "quantity_name": "Efficacy", "result_number": 70}
{"compound": "Cn1nc(C(F)F)c(C(=O)Nc2ccccc2-c2cc(F)c(F)cc2F)c1Cl [Example 108]", "assay_system": "Alternaria solani", "quantity_name": "Efficacy", "result_number": 100}

---

Experiment: logP by HPLC on reversed-phase column (EEC Directive 79/831 Annex V.A8)
Details: HPLC on reversed-phase column (C 18), EEC Directive 79/831 Annex V.A8
quantity_name: logP

{"compound": "CC(C)Oc1ccc(-c2cccc(NC(=O)c3c(C(F)F)nn(C)c3F)c2)cc1 [compound 223]", "quantity_name": "logP", "result_number": 3.96}
{"compound": "Cn1nc(C(F)F)c(C(=O)Nc2cccc(-c3cccc(OC(F)(F)F)c3)c2)c1F [compound 242]", "quantity_name": "logP", "result_number": 4.11}
{"compound": "CC(CC(C)(C)C)c1ccccc1NC(=O)c1c(C(F)F)nn(C)c1F (stereo not drawn) [Example 21]", "quantity_name": "logP", "result_number": 4.04}
{"compound": "Cn1nc(C(F)F)c(C(=O)Nc2ccccc2-c2ccccc2)c1F [Example 73]", "quantity_name": "logP", "result_number": 3.25}
{"compound": "COC(C)(C)CCc1ccccc1NC(=O)c1c(C(F)F)nn(C)c1F [Example 23]", "quantity_name": "logP", "result_number": 2.74}
{"compound": "Cn1nc(C(F)F)c(C(=O)Nc2ccc(F)cc2-c2ccc(F)cc2)c1Cl [Example 79]", "quantity_name": "logP", "result_number": 3.41}
{"compound": "Cn1nc(C(F)F)c(C(=O)Nc2cccc(-c3ccc(F)c(Cl)c3)c2)c1F [compound 217]", "quantity_name": "logP", "result_number": 3.89}
{"compound": "CC(C)c1ccc(-c2cccc(NC(=O)c3c(C(F)F)nn(C)c3F)c2)cc1 [compound 215]", "quantity_name": "logP", "result_number": 4.46}
{"compound": "CC(C)c1ccc(-c2cccc(NC(=O)c3c(C(F)F)nn(C)c3Cl)c2)cc1 [compound 216]", "quantity_name": "logP", "result_number": 4.68}
